Target: Inhibitor of nuclear factor kappa-B kinase subunit beta (Homo sapiens);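 also: values are mean percent inhibition of IKKB, part of the GSK PKIS screening data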
Settings: at 0.1 µM
Observable: inhibition (%)
Answers are plain numbers, in %.

// `c1ccc(-c2nc3n(c2-c2ccc4c(c2)OCO4)CCC3)nc1` : inhibition value = 3.06

Quick batch: inhibition for everything below.
1. O=C(Nc1n[nH]c2cc(-c3ccc(F)cc3)ccc12)C1CC1
2. COc1ccc(-c2cc3c(N)ncnc3o2)cc1
3. [O-][S+]1CCN(Cc2ccc(-c3ccc4ncnc(Nc5ccc(OCc6cccc(F)c6)c(Cl)c5)c4c3)o2)CC1

*A*
1: 4.46; 2: -0.63; 3: 9.09

###

Target: Testis-specific serine/threonine-protein kinase 1 (Homo sapiens) (UniProt Q9BXA7);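 also: mean percent inhibition of TSSK1, from the GSK PKIS screening dataset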
Sequence (Q9BXA7 whole entry): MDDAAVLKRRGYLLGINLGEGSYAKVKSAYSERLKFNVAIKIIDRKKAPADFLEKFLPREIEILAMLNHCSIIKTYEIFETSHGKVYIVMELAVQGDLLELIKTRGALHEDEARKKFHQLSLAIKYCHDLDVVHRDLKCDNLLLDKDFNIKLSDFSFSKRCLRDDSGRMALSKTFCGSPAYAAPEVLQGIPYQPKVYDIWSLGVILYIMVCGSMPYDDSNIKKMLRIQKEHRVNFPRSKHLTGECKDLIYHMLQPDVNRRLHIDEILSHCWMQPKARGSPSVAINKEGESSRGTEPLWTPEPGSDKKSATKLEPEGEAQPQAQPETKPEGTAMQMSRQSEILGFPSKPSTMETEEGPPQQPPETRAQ
Details: at 0.1 µM
Observable: inhibition (%)
Give bare numbers, in %.

// `CN1CCC(n2cnc(-c3ccc(F)cc3)c2-c2ccnc(N)n2)CC1` : inhibition value = 2.05

// `CNC(=O)c1cc(-c2ccc(F)cc2)cc(-c2ccc(S(=O)(=O)N3CCCC3)cc2)c1N` : inhibition value = 2.57

Quick batch: inhibition for everything below.
1. Clc1ccc(-c2nn3ncccc3c2-c2ccnc(Nc3ccccc3)n2)cc1
2. O=C(O[C@H]1CN[C@H](C#Cc2cc3ncnc(Nc4ccc(Cc5ccccc5)cc4)c3s2)C1)N1CCOCC1

*A*
1. 0.84
2. 0.42

###

Hi there, I'd appreciate the recorded inhibition for every entry that follows.
Molecular target: Ephrin type-A receptor 2 (Homo sapiens) (UniProt P29317);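 also: reported values are mean percent inhibition of EPHA2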
Sequence (P29317 whole entry): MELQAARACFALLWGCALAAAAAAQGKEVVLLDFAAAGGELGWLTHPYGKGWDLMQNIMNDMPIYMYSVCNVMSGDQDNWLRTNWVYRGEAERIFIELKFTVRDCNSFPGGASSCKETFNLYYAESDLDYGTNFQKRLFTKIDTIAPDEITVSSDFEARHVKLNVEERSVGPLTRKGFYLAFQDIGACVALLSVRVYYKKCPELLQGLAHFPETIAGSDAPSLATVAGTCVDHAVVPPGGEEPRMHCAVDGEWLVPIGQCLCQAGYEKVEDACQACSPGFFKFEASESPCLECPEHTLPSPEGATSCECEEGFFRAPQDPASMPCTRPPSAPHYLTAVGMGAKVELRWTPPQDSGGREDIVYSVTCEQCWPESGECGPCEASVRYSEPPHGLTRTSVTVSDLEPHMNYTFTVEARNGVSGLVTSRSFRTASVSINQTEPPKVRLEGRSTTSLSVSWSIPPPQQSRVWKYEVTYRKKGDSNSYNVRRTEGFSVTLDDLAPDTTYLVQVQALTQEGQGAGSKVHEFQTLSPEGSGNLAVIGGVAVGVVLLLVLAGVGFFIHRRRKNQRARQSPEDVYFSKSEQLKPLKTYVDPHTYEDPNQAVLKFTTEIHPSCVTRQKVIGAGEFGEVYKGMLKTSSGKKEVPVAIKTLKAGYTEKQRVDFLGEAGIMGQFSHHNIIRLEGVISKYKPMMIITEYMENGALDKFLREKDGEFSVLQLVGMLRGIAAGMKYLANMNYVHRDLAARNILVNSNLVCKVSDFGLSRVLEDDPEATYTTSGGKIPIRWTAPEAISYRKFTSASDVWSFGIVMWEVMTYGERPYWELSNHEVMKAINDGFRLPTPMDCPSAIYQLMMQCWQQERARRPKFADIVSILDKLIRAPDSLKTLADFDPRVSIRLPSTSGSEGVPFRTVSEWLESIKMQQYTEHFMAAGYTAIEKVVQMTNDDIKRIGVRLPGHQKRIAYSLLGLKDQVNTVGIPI
Conditions: at 0.1 µM
Kindly format the answer as number then unit.

Solved entries (count: 3):
The molecule `FC(F)(F)c1cccc(-c2nn3ncccc3c2-c2ccnc(Nc3ccc4c(c3)OCCO4)n2)c1` , when measured on Ephrin type-A receptor 2 (Homo sapiens) (UniProt P29317), yielded inhibition of 2.29%

The molecule `CCNC(=O)O[C@H]1CN[C@H](C#Cc2cc3ncnc(Nc4ccc(OCc5cccc(F)c5)c(Cl)c4)c3s2)C1` , when measured on Ephrin type-A receptor 2 (Homo sapiens) (UniProt P29317), yielded inhibition of 3.3%

The molecule `COc1ccc(-c2oc3ncnc(N)c3c2-c2ccc(NC(=O)Nc3cc(C(F)(F)F)ccc3F)cc2)cc1` , when measured on Ephrin type-A receptor 2 (Homo sapiens) (UniProt P29317), yielded inhibition of 87.9%

Quick batch: inhibition for everything below.
1. CCCN1CCC(c2ccc(Nc3nc(Nc4cc(F)ccc4C(N)=O)c4cc[nH]c4n3)c(OC)c2)CC1
2. CCn1cc(-c2ccnc3[nH]ccc23)c(-c2cccc(NC(=O)Nc3ccc(OCc4ccccc4)cc3)c2)n1
3. NS(=O)(=O)c1ccc(Nc2ncc(-c3ccccc3)o2)cc1
4. COC(=O)Nc1nc2ccc(Oc3ccc(NC(=O)Nc4cccc(Cl)c4)cc3)cc2[nH]1
5. COc1ccc(-c2cc3c(N)ncnc3o2)cc1

*A*
["1.29%", "1.83%", "2.66%", "7.68%", "-3.93%"]

Quick batch: inhibition for everything below.
1. CS(=O)(=O)CCNCc1ccc(-c2ccc3ncnc(Nc4ccc(OCc5ccccc5)c(C(F)(F)F)c4)c3c2)o1
2. Fc1cccc(COc2ccc(Nc3ncnc4sc(-c5ccco5)cc34)cc2Cl)c1

*A*
2.24%
2.14%

Quick batch: inhibition for everything below.
1. Fc1ccc(-c2nn3ccccc3c2-c2ccncc2)cc1
2. CC1=C(C(=O)Nc2cc(Cl)c3[nH]ncc3c2)C(c2ccc(C(F)(F)F)cc2)CC(=O)N1 (stereo not drawn)
3. COc1cc(N2CCN(C(C)C)CC2)ccc1Nc1nc(Nc2ccc(F)cc2C(N)=O)c2cc[nH]c2n1
4. CNC(=O)c1cc(-c2ccc(F)cc2)cc(-c2ccc(S(=O)(=O)N3CCCC3)cc2)c1N
5. NC(=O)c1sc(-n2cnc3ccc(C(F)(F)F)cc32)cc1OCc1ccccc1Br
6. CC(=O)Nc1cccc(C#Cc2cncnc2Nc2ccc(OCc3cccc(F)c3)c(Cl)c2)c1

*A*
1. -1.52%
2. -2.83%
3. 0.87%
4. -2.99%
5. -2.06%
6. 4.33%

Data provenance is ChEMBL document CHEMBL1961873.
